Tested on: SK-OV-3
Experiment: NCI tumour cell line growth inhibition, 48 h
Activity calls are given as the source filed them. Cut-off read from the data, not from the text of the source: active = GI50 up to about 1.1 µM and inactive = higher.
RECORDED_METRIC: GI50

INSERT INTO results (molecule, endpoint_value) VALUES
  ('Cc1cn(C2CC(O)C(CO)C2C)c(=O)[nH]c1=O (stereo not given)', '> 100 µM (inactive)'),
  ('CC(=O)OC(=C(C#N)C#N)c1nccnc1C(=O)O', '> 100 µM (inactive)'),
  ('C1=Cc2ccccc2C1.C=C(C)c1ccccc1.[N-]=[N+]=Nc1ccccc1', '> 100 µM (inactive)'),
  ('CCCCCCCC1c2cc3nc(cc4[nH]c(cc5nc(cc([nH]2)[C@@]1(C)CC(=O)N(C)C)C(C)=C5CCC(=O)O)c(CCC(=O)O)c4C)C=C3C (stereo not given in full)', '40.6 µM (inactive)'),
  ('CCCCCCCCCCCCCCCCP(=O)(O)OP(=O)(O)OCC1OC(n2cnc3c(N)ncnc32)C(O)C1O (stereo not given)', '28.6 µM (inactive)');

###

Tested on: EKVX
Assay: NCI tumour cell line growth inhibition, 48 h
Active and inactive are the calls of the source. Rule as the data show it: active = GI50 up to about 1.1 µM and inactive = higher.
RECORDED_METRIC: GI50

INSERT INTO assay_data (molecule, recorded_metric, endpoint_value) VALUES
  ('COc1cc2c(c(OC)c1OC)-c1ccc(SC)c(=O)cc1C(CC(=O)Oc1ccc([N+](=O)[O-])cc1)C2 (configuration not stated)', 'GI50', '7.29 µM (inactive)'),
  ('CCOc1nc(N)nc(C)c1/N=N/c1ccc(Cl)cc1', 'GI50', '51.6 µM (inactive)'),
  ('Cc1cccc2c1c(=O)c1c(O)cc3c(c1n2C)C=CC(C)(C)O3', 'GI50', '33.9 µM (inactive)'),
  ('O=C(O)C(C1NCCS1)N1C(=O)c2ccccc2C1=O (configuration not stated)', 'GI50', '> 100 µM (inactive)'),
  ('COC(=O)C1=C(C)NC(C)=C(C(=O)OCCCN2CCC(c3ccccc3)(c3ccccc3)CC2)[C@H]1c1cccc([N+](=O)[O-])c1', 'GI50', '2 µM (inactive)'),
  ('CCCOc1ccc(/C(Cl)=C(\C=O)c2ccc(OC)c(OC)c2)cc1OCCC', 'GI50', '10.9 µM (inactive)'),
  ('CC(=O)O[C@H]1CC[C@@]2(C)C(=CC[C@@H]3C2CC[C@]2(C)Nc4[nH]ncc4CC32)C1 (some centres not stated)', 'GI50', '29.8 µM (inactive)'),
  ('CN(C)c1ccc(/C=C/c2cc[n+](C)c3ccccc23)cc1', 'GI50', '34.7 µM (inactive)'),
  ('CC12C=CC(C)(C3C(=O)C4C(C(=O)C31)C1(C)C=CC4(C)[S+]1[O-])[S+]2[O-] (configuration not stated)', 'GI50', '> 100 µM (inactive)'),
  ('CNc1ccc2c(c1)Cc1ccccc1-2', 'GI50', '12.7 µM (inactive)'),
  ('Cn1cc(NC(=O)c2cc(NC(=O)CCCCCCCCCCC(=O)Nc3cc(C(=O)Nc4cc(C(=O)NCCC(=N)N)n(C)c4)n(C)c3)cn2C)cc1C(=O)NCCC(=N)N', 'GI50', '31 µM (inactive)'),
  ('CC1(C)CCCCCCCCCC(C)(CCCCCCCCCCCCO)C1=O (configuration not stated)', 'GI50', '19.3 µM (inactive)');

Cited source: ChEMBL document CHEMBL1201862
